settings: 433 K; 5000 kPa; Liquid; Vibrating tube method
Numbers after ± are expanded uncertainties.
quantity-kind: mass density
Quick note: number first, unit second.

{"columns": ["molecule", "mass density"],
 "data": [
  ["CCCCCCCCCCCC [dodecane]", "651.6 ± 2.1 kg/m3"],
  ["CCCCCCC [heptane]", "560.7 ± 2 kg/m3"],
  ["c1ccccc1 [benzene]", "724 ± 2.2 kg/m3"]
]}

Let us examine a further case.
Data request: Supply recorded mass density for Cc1ccccc1 [toluene] here.
Data returned: 737.5 ± 2.1 kg/m3

----------
Listed here are compounds together with their documented mass density.
settings: 293 K; 40000 kPa; Liquid; Vibrating tube method
// note: answer is a bare numeric in kg/m3

Consider the reported mass density for these compounds:
{"columns": ["smiles-input", "mass density / kg/m3"],
 "data": [
  ["c1ccccc1", 902.9],
  ["CCCCCCC", 714.8],
  ["Cc1ccccc1", 895.1]
]}

Data request: Recall and state the measured mass density for CCCCCCCCCCCC .
Data returned: 774.3
